All figures here come from patent US7632845B2.

tgt: ERβ (Homo sapiens, UniProt Q92731)
Sequence (Q92731 264-498 limits assumed): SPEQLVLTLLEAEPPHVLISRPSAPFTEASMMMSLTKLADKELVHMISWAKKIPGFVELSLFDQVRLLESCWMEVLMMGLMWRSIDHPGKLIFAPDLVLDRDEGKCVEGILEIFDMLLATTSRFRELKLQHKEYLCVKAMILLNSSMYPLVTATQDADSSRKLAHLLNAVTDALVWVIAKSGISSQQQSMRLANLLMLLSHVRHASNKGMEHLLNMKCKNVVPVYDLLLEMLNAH
experiment-notes: Competition with [3H]-17β-estradiol for ERβ ligand binding domain
experimental-setup: crude E. coli lysate expressing human ERβ LBD (D, E, & F); 2 nM [3H]-17β-estradiol; 5-15 hours at room temperature
measured-metric: IC50 (nM)

[
  {
    "compound": "CCCCC#Cc1cc(-c2ccc(O)c(F)c2)nc2c(Cl)cc(O)cc12",
    "measured-metric": "IC50",
    "value-qualifier": "=",
    "observed-value": 21
  },
  {
    "compound": "Oc1cc(Br)c2nc(-c3ccc(O)c(F)c3)cc(Cl)c2c1",
    "measured-metric": "IC50",
    "value-qualifier": "=",
    "observed-value": 0.54
  },
  {
    "compound": "C[Si](C)(C)C#Cc1cc(-c2ccc(O)c(F)c2)nc2ccc(O)cc12 [Cpd 13b]",
    "measured-metric": "IC50",
    "value-qualifier": "=",
    "observed-value": 153
  },
  {
    "compound": "C#Cc1cc(-c2ccc(O)c(F)c2)nc2c(C#N)cc(O)cc12",
    "measured-metric": "IC50",
    "value-qualifier": "=",
    "observed-value": 1.3
  },
  {
    "compound": "CC(=O)Oc1ccc2nc(-c3ccc(OC(C)=O)c(F)c3)cc(Br)c2c1",
    "measured-metric": "IC50",
    "value-qualifier": "=",
    "observed-value": 198
  },
  {
    "compound": "N#Cc1cc(-c2ccc(O)c(F)c2)nc2c(Cl)cc(O)cc12",
    "measured-metric": "IC50",
    "value-qualifier": "=",
    "observed-value": 1.7
  },
  {
    "compound": "CC(O)c1cc(-c2ccc(O)cc2)nc2ccc(O)cc12 (centres unmarked) [Cpd 17a]",
    "measured-metric": "IC50",
    "value-qualifier": ">",
    "observed-value": 5000
  },
  {
    "compound": "Oc1ccc(-c2cc(I)c3cc(O)ccc3n2)cc1 [Cpd 8a, 2-(4-Hydroxyphenyl)-4-iodoquinolin-6-ol]",
    "measured-metric": "IC50",
    "value-qualifier": "=",
    "observed-value": 2.4
  },
  {
    "compound": "Oc1ccc2nc(-c3ccc(O)c(F)c3)cc(Br)c2c1",
    "measured-metric": "IC50",
    "value-qualifier": "=",
    "observed-value": 3.4
  },
  {
    "compound": "Oc1ccc(-c2ccc3c(Br)c(O)ccc3n2)cc1 [Cpd 32, 5-Bromo-2-(4-hydroxyphenyl)quinolin-6-ol]",
    "measured-metric": "IC50",
    "value-qualifier": "=",
    "observed-value": 90
  },
  {
    "compound": "N#Cc1cc(O)cc2c(Cl)cc(-c3ccc(O)c(F)c3)nc12",
    "measured-metric": "IC50",
    "value-qualifier": "=",
    "observed-value": 1.1
  },
  {
    "compound": "CCc1cc(-c2ccc(O)c(F)c2)nc2ccc(O)cc12 [Cpd 12b]",
    "measured-metric": "IC50",
    "value-qualifier": "=",
    "observed-value": 40
  },
  {
    "compound": "N#Cc1c(Cl)c(-c2ccc(O)c(F)c2)nc2ccc(O)cc12",
    "measured-metric": "IC50",
    "value-qualifier": "=",
    "observed-value": 26
  },
  {
    "compound": "Oc1ccc2nc(-c3ccc(O)c(F)c3)cc(-c3cncnc3)c2c1",
    "measured-metric": "IC50",
    "value-qualifier": "=",
    "observed-value": 968
  },
  {
    "compound": "Oc1cc(Cl)c2nc(-c3ccc(O)c(F)c3)cc(Br)c2c1 [Cpd 45a]",
    "measured-metric": "IC50",
    "value-qualifier": "=",
    "observed-value": 0.35
  },
  {
    "compound": "N#Cc1cc(O)cc2c(Br)cc(-c3ccc(O)c(F)c3)nc12",
    "measured-metric": "IC50",
    "value-qualifier": "=",
    "observed-value": 1.4
  },
  {
    "compound": "Oc1cc(Br)c2nc(-c3ccc(O)c(F)c3)cc(Br)c2c1 [Cpd 45b]",
    "measured-metric": "IC50",
    "value-qualifier": "=",
    "observed-value": 1.7
  },
  {
    "compound": "Oc1ccc(-c2nc3ccc(O)cc3c(-c3ccc(F)cc3)c2Cl)cc1",
    "measured-metric": "IC50",
    "value-qualifier": "=",
    "observed-value": 244
  },
  {
    "compound": "Oc1ccc2nc(-c3ccc(O)c(F)c3)cc(-c3ccc(C(F)(F)F)cc3)c2c1",
    "measured-metric": "IC50",
    "value-qualifier": ">",
    "observed-value": 5000
  },
  {
    "compound": "Oc1ccc2nc(-c3ccc(O)c(F)c3)cc(-c3ccccc3)c2c1",
    "measured-metric": "IC50",
    "value-qualifier": "=",
    "observed-value": 128
  }
]

###

tgt: ERα (Homo sapiens, UniProt P03372)
Sequence (P03372 311-547 limits assumed): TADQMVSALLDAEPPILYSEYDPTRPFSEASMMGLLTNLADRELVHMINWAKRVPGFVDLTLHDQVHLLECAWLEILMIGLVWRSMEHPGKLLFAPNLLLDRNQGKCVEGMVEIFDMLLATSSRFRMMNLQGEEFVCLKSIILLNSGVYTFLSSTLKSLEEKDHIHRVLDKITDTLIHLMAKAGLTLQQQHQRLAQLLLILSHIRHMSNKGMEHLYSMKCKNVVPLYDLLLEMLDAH
experiment-notes: Competition with [3H]-17β-estradiol for ERα ligand binding domain
experimental-setup: crude E. coli lysate expressing human ERα LBD (D, E, & F); 2 nM [3H]-17β-estradiol; 5-15 hours at room temperature
pIC50: −log10 of the molar value.

[
  {
    "compound": "C[Si](C)(C)C#Cc1cc(-c2ccc(O)cc2)nc2ccc(O)cc12 [Cpd 13a]",
    "value-qualifier": "=",
    "pIC50": 5.82
  },
  {
    "compound": "CC(=O)Oc1ccc2nc(-c3ccc(OC(C)=O)c(F)c3)cc(Br)c2c1 [Cpd 7]",
    "value-qualifier": "<",
    "pIC50": 5.30
  },
  {
    "compound": "Oc1ccc2nc(-c3ccc(O)c(F)c3)cc(Cl)c2c1 [Cpd 5b]",
    "value-qualifier": "=",
    "pIC50": 6.61
  },
  {
    "compound": "Oc1ccc2nc(-c3ccc(O)c(F)c3)c(Cl)c(Br)c2c1 [Cpd 35b]",
    "value-qualifier": "=",
    "pIC50": 7.05
  },
  {
    "compound": "C[Si](C)(C)C#Cc1cc(-c2ccc(O)c(F)c2)nc2ccc(O)cc12 [Cpd 13b]",
    "value-qualifier": "=",
    "pIC50": 5.77
  }
]

###

tgt: ERβ (Homo sapiens)
experiment-notes: Competition with [3H]-17β-estradiol for ERβ ligand binding domain
experimental-setup: crude E. coli lysate expressing human ERβ LBD (D, E, & F); 2 nM [3H]-17β-estradiol; 5-15 hours at room temperature
Experimental: Representative examples of the invention were evaluated for their ability to compete with 17β-estradiol for both ERα and ERβ. This test procedure provides the methodology for one to determine whether a particular compound binds to the estrogen receptor (and is therefore “estrogenic”) and whether there is selectivity for ERα or ERβ. […] After between 5 and 15 hours at room temperature, the plates were washed with DPBS/1 mM EDTA and bound radioactivity determined by liquid scintillation counting.
pIC50: −log10 of the molar value.
// reported pIC50 per item

[
  {
    "molecule": "C#Cc1cc(-c2ccc(O)cc2)nc2ccc(O)cc12 [Cpd 14a]",
    "pIC50": 7.12
  },
  {
    "molecule": "Cc1ccc(-c2cc(-c3ccc(O)c(F)c3)nc3ccc(O)cc23)cc1 [Cpd 21]",
    "pIC50": 6.95
  },
  {
    "molecule": "Oc1ccc2nc(-c3ccc(O)c(F)c3)cc(-c3ccncc3)c2c1 [Cpd 27]",
    "pIC50": 7.11
  },
  {
    "molecule": "C[Si](C)(C)C#Cc1cc(-c2ccc(O)cc2)nc2ccc(O)cc12 [Cpd 13a]",
    "pIC50": 6.79
  },
  {
    "molecule": "Oc1ccc2nc(-c3ccc(O)c(F)c3)cc(-c3nccs3)c2c1 [Cpd 18]",
    "pIC50": 6.68
  },
  {
    "molecule": "C=Cc1cc(-c2ccc(O)c(F)c2)nc2c(Cl)cc(O)cc12 [Cpd 50]",
    "pIC50": 9.02
  },
  {
    "molecule": "C#Cc1cc(-c2ccc(O)c(F)c2)nc2c(Cl)cc(O)cc12 [Cpd 48]",
    "pIC50": 9.12
  },
  {
    "molecule": "Oc1ccc(-c2ccc3c(Cl)c(O)ccc3n2)cc1 [Cpd 31]",
    "pIC50": 7.42
  },
  {
    "molecule": "CC(=O)c1cc(-c2ccc(O)cc2)nc2ccc(O)cc12 [Cpd 16a]",
    "pIC50": 6.68
  },
  {
    "molecule": "Oc1ccc2nc(-c3ccc(O)c(F)c3)cc(-c3ccc(F)cc3)c2c1 [Cpd 22]",
    "pIC50": 7.48
  },
  {
    "molecule": "Oc1ccc2nc(-c3ccc(O)c(F)c3)c(Cl)c(Br)c2c1 [Cpd 35b]",
    "pIC50": 8.43
  },
  {
    "molecule": "COc1ccc(-c2cc(-c3ccc(O)c(F)c3)nc3c(Cl)cc(O)cc23)cc1 [Cpd 52]",
    "pIC50": 7.89
  },
  {
    "molecule": "Oc1ccc2nc(-c3ccc(O)c(F)c3)cc(-c3ccsc3)c2c1 [Cpd 26]",
    "pIC50": 7.12
  },
  {
    "molecule": "CCc1cc(-c2ccc(O)cc2)nc2ccc(O)cc12 [Cpd 12a, 4-Ethyl-2-(4-hydroxyphenyl)quinolin-6-ol]",
    "pIC50": 7.21
  },
  {
    "molecule": "Oc1ccc(-c2nc3ccc(O)cc3c(Br)c2Cl)cc1 [Cpd 35a]",
    "pIC50": 8.90
  },
  {
    "molecule": "Oc1ccc2nc(-c3cc(F)c(O)c(F)c3)cc(Br)c2c1 [Cpd 6c]",
    "pIC50": 7.38
  },
  {
    "molecule": "Oc1ccc(-c2cc(Cl)c3cc(O)ccc3n2)cc1 [Cpd 5a]",
    "pIC50": 8.34
  },
  {
    "molecule": "Oc1ccc2nc(-c3ccc(O)c(F)c3)cc(I)c2c1 [Cpd 8b]",
    "pIC50": 8.30
  },
  {
    "molecule": "N#Cc1ccc(-c2cc(-c3ccc(O)c(F)c3)nc3ccc(O)cc23)cc1 [Cpd 24]",
    "pIC50": 7.28
  },
  {
    "molecule": "C#Cc1cc(-c2ccc(O)c(F)c2)nc2ccc(O)cc12 [Cpd 14b]",
    "pIC50": 7.49
  }
]
